# Tested on: MDA-MB-231 breast
# test-protocol: NCI tumour cell line growth inhibition, 48 h

compound	TGI (µM)
CN(C)CCCC1(c2ccc(F)cc2)OCc2cc(-c3cncc4ccccc34)ccc21 (centres undefined)	6.57
C[C@@H]1C/C=C\C(=O)O[C@H](/C=C/C#C/C=C/C(C)(C)[C@@H](O)c2cccc(O)c2Br)[C@@H](C)/C=C/[C@H](C)C[C@H](OC(N)=O)C1	2.12
O=C1C=C(N2CCN(c3ccccn3)CC2)C(=O)c2c(O)ccc(O)c21	44.9
O=[N+]([O-])/C=C/c1cn(CCCCCn2cc(/C=C/[N+](=O)[O-])c3ccccc32)c2ccccc12	4.28
